inhibition: recorded values
System: GAL4DBD-VP16 transactivation domain fusion (Human herpesvirus 1 VP16)
procedure_text: suppression of VP16-driven UAS luciferase – cell-based, luminescence, HEK293T, powder samples, counter-screen for LRH1 inverse agonist project, confirmation (AID 488775)
run_parameters: HEK293T GAL4-VP16 UAS-luciferase reporter, 18-24 h; at 5 µM; stronger effect = higher value
Please give a number only; it is taken to be in %.

{"compound_smiles": "O=c1cc(N2CCN(Cc3ccc(Cl)cc3)CC2)[nH]c(=O)n1C1CCCCC1", "inhibition / %": -4}
{"compound_smiles": "O=c1cc(N2CCOCC2)[nH]c(=O)n1C1CCCCC1", "inhibition / %": 9}
{"compound_smiles": "Cc1ccc(Cl)cc1N1CCN(c2cc(=O)n(C3CCCCC3)c(=O)[nH]2)CC1", "inhibition / %": 0}

QUERY: Param readout = inhibition; param system = GAL4DBD-VP16 transactivation domain fusion (Human herpesvirus 1 VP16); param query = O=c1cc(N2CCN(c3cccc(Cl)c3)CC2)[nH]c(=O)[nH]1 ; response: value
RESULT: 3

====

Test system: GAL4DBD-VP16 transactivation domain fusion (Human herpesvirus 1 VP16)
procedure_text: suppression of VP16-driven UAS luciferase – cell-based, luminescence, HEK293T, powder samples, counter-screen for LRH1 inverse agonist project, confirmation (AID 488775)
run_parameters: HEK293T GAL4-VP16 UAS-luciferase reporter, 18-24 h; at 5 µM; stronger effect = higher value
inhibition: recorded values
Please give a number only; it is taken to be in %.

Examples from the recorded data:
{"compound_smiles": "O=c1cc(N2CCN(c3cccc(Br)c3)CC2)[nH]c(=O)n1C1CCCCC1", "unit_string": "%", "number": -4}
{"compound_smiles": "O=c1cc(N2CCN(c3ccccn3)CC2)[nH]c(=O)n1C1CCCCC1", "unit_string": "%", "number": -8}
{"compound_smiles": "O=c1cc(N2CCN(c3cccc(Cl)n3)CC2)[nH]c(=O)n1C1CCCCC1", "unit_string": "%", "number": -7}

# input for lookup
QUERY: Query (compound): O=c1cc(N2CCN(c3ccc(C(F)(F)F)cc3)CC2)[nH]c(=O)n1C1CCCCC1 ; field requested: inhibition
RESULT: -5

Data origin, for the record: PubChem BioAssay AID488775
